Data origin: patent US11802111B2

Reported IC50 values for a set of compounds
# system: human MGL from HeLa cells (Homo sapiens (Human), UniProt Q99685)
# Sequence (Q99685 whole entry): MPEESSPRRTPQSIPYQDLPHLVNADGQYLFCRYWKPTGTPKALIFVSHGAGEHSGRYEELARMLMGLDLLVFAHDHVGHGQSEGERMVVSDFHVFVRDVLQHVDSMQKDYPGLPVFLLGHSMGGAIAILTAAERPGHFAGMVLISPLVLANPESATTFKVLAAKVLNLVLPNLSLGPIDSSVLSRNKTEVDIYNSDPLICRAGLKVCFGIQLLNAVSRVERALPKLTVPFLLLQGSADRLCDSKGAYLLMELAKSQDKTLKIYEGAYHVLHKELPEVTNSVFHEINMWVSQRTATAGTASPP
# procedure-details: MGL in vitro activity assay ([glycerol-1,3-3H]-oleoyl glycerol hydrolysis, activated carbon filtration)
# run-conditions: 300 nM [Glycerol-1,3-3H]-oleoyl glycerol, one hour
Numeric only. Scale: nM

Here's what some known entries look like.
[
  {
    "mol-smiles": "C[C@]1(O)C[C@@H](C(=O)N2CC3(CCC(Oc4cccc(C(F)(F)F)n4)CC3)C2)C1",
    "unit-symbol": "nM",
    "IC50": 84
  },
  {
    "mol-smiles": "Cc1cc(C2CC2)ccc1C1CC2(C1)CN(C(=O)[C@H]1C[C@@](C)(O)C1)C2",
    "unit-symbol": "nM",
    "IC50": 125
  },
  {
    "mol-smiles": "Cc1ccc(C(F)(F)F)c(CC2CC3(C2)CN(C(=O)[C@H]2C[C@@](C)(O)C2)C3)c1",
    "unit-symbol": "nM",
    "IC50": 4.1
  }
]

Consider now this further compound.
**Q:** Write down the reported IC50 of CC(C)(C)c1cncc(C2CCC3(CC2)CN(C(=O)[C@H]2C[C@@](C)(O)C2)C3)n1 , test system: human MGL from HeLa cells (Homo sapiens (Human), UniProt Q99685).
**A:** 82
